assayed.system: uPA (recombinant urokinase plasminogen activator) (Homo sapiens)
Construct: purchased HYPHEN BioMed
assay.method.text: IC50 determination, spectrophotometric protease assay
Assay type: biochemical
In this section we review reported IC50 values for a set of compounds.
Report only the number, with the unit nM understood.

Problem: Request the reported IC50 associated with CC(=O)Nc1ccc(OP(=O)(Oc2ccc(NC(C)=O)cc2)C(Cc2ccc(NC(=N)N)cc2)NC(=O)OCCCc2cn(CCOCCOCCOCCNC(=O)CCCCC[C@H]3NC(=O)N[C@H]3C)nn2)cc1 (stereo partly shown) [52b]
Solution: 10

Further cases:
Problem: Request the reported IC50 associated with C[C@@H]1NC(=O)N[C@@H]1CCCCCC(=O)NCCOCCOCCOCCn1cc(CCCOC(=O)NC(Cc2ccc(NC(=N)N)cc2)P(=O)(Oc2ccccc2)Oc2ccccc2)nn1 (stereo partly shown) [50b]
Solution: 20

----------
assayed.system: β-tryptase (recombinant tryptase β-2) (Homo sapiens, UniProt P20231)
Construct: purchased EnzoLife Sciences
assay.method.text: IC50 determination, spectrophotometric protease assay
Assay type: biochemical
assay.endpoint: IC50 (nM)
Report only the number, with the unit nM understood.

Look over these answered cases.
Problem: # get_value(readout= IC50, system= β-tryptase (recombinant tryptase β-2) (Homo sapiens, UniProt P20231)) for C#CCCCOC(=O)NC(Cc1ccc(NC(=N)N)cc1)P(=O)(Oc1ccc(Cl)cc1)Oc1ccc(Cl)cc1 (stereo not shown) [36b]
Solution: 70

Problem: Okay, and C#CCCCOC(=O)NC(c1ccc(NC(=N)N)cc1)P(=O)(Oc1ccccc1)Oc1ccccc1.O=C(O)C(F)(F)F (stereo not shown) [37b] ?
Solution: 900

Problem: Okay, and CC(=O)Nc1ccc(OP(=O)(Oc2ccc(NC(C)=O)cc2)C(Cc2ccc(NC(=N)N)cc2)NC(=O)OCCCc2cn(CCOCCOCCOCCNC(=O)CCCCC[C@H]3NC(=O)N[C@H]3C)nn2)cc1 (stereo partly shown) [52b] ?
Solution: 70

Further cases:
Problem: # get_value(readout= IC50, system= β-tryptase (recombinant tryptase β-2) (Homo sapiens, UniProt P20231)) for C#CCCCOC(=O)NC(CCCCN)P(=O)(Oc1ccccc1)Oc1ccccc1.O=C(O)C(F)(F)F (stereo not shown) [29b]
Solution: 3960

----------
assayed.system: Cathepsin G (cathepsin G human neutrophil) (Homo sapiens, UniProt P08311)
Construct: Cathepsin G (cathepsin G human neutrophil, Sigma-Aldrich); purchased Sigma-Aldrich; host or cells: human neutrophil
Sequence (P08311 21-255): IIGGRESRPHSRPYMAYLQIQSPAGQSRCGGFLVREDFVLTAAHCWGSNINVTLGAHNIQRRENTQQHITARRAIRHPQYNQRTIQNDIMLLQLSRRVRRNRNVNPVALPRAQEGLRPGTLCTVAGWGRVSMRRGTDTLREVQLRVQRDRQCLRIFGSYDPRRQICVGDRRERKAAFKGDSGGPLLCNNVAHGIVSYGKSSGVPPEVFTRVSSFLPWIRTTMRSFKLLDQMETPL
assay.method.text: IC50 determination, spectrophotometric protease assay
Format: biochemical
assay.endpoint: IC50 (nM)
Report only the number, with the unit nM understood.

Look over these answered cases.
Problem: Request the reported IC50 associated with C#CCCCOC(=O)NC(Cc1ccc(NC(=N)N)cc1)P(=O)(Oc1ccccc1)Oc1ccccc1 (stereo not shown) [34b]
Solution: 450

Problem: Okay, and C#CCCCOC(=O)NC(Cc1ccc(NC(=N)N)cc1)P(=O)(Oc1ccc(NC(C)=O)cc1)Oc1ccc(NC(C)=O)cc1 (stereo not shown) [35b] ?
Solution: 60

Problem: Okay, and C#CCCCOC(=O)NC(Cc1ccc(CNC(=N)N)cc1)P(=O)(Oc1ccccc1)Oc1ccccc1 (stereo not shown) [40b] ?
Solution: 6160

Problem: Okay, and C#CCCCOC(=O)NC(Cc1ccc(CN)cc1)P(=O)(Oc1ccccc1)Oc1ccccc1 (stereo not shown) [22b] ?
Solution: 5260

Further cases:
Problem: Request the reported IC50 associated with C[C@@H]1NC(=O)N[C@@H]1CCCCCC(=O)NCCOCCOCCOCCn1cc(CCCOC(=O)NC(Cc2ccc(NC(=N)N)cc2)P(=O)(Oc2ccc(Cl)cc2)Oc2ccc(Cl)cc2)nn1 (stereo partly shown) [54b]
Solution: 120

----------
assayed.system: uPA (Homo sapiens, UniProt P00749)
Construct: purchased HYPHEN BioMed
assay.method.text: Jump dilution, determination of inhibition type
Format: biochemical
settings: inhibitor at 10 times IC50, 15 min, diluted 10-fold or 100-fold; Rev./Irrev.
assay.endpoint: uPA jump dilution result

Problem: Request the reported uPA jump dilution result associated with C#CCCCOC(=O)NC(CCCNC(=N)N)P(=O)(Oc1ccccc1)Oc1ccccc1 (stereo not drawn) [32b]
Solution: Irrev.

Problem: Okay, and C[C@@H]1NC(=O)N[C@@H]1CCCCCC(=O)NCCOCCOCCOCCn1cc(CCCOC(=O)NC(Cc2ccc(NC(=N)N)cc2)P(=O)(Oc2ccc(Cl)cc2)Oc2ccc(Cl)cc2)nn1 (stereo partly drawn) [54b] ?
Solution: Irrev.

Problem: Okay, and C[C@@H]1NC(=O)N[C@@H]1CCCCCC(=O)NCCOCCOCCOCCn1cc(CCCOC(=O)NC(c2ccc(NC(=N)N)cc2)P(=O)(Oc2ccccc2)Oc2ccccc2)nn1 (stereo partly drawn) [55b] ?
Solution: Irrev.

----------
assayed.system: TLCK-treated pancreatic bovine chymotrypsin (Bos taurus)
Construct: TLCK-treated pancreatic bovine chymotrypsin (Sigma-Aldrich); purchased Sigma-Aldrich; host or cells: bovine pancreas
assay.method.text: IC50 determination, spectrophotometric protease assay
Type: biochemical
settings: read-out: ChTryp IC50; biotin probes; 15 min preincubation at 37 °C; mean ± SD
assay.endpoint: pIC50
# reply with the number alone; pIC50 is -log10 of concentration in mol/L

Problem: Request the reported pIC50 associated with O=C(CCCCC1SCC2NC(=O)NC21)NCCOCCOCCOCCn1cc(CCCOC(=O)NC(Cc2ccccc2)P(=O)(Oc2ccccc2)Oc2ccccc2)nn1 (stereo not shown) [compound 43]
Solution: 5.58

----------
assayed.system: Cathepsin G (cathepsin G human neutrophil) (Homo sapiens)
Construct: Cathepsin G (cathepsin G human neutrophil, Sigma-Aldrich); purchased Sigma-Aldrich; host or cells: human neutrophil
assay.method.text: IC50 determination, spectrophotometric protease assay
Type: biochemical
assay.endpoint: IC50

Problem: # get_value(readout= IC50, system= Cathepsin G (cathepsin G human neutrophil) (Homo sapiens)) for C#CCCCOC(=O)NC(c1ccc(NC(=N)N)cc1)P(=O)(Oc1ccc(NC(C)=O)cc1)Oc1ccc(NC(C)=O)cc1 (stereo not shown) [38b]
Solution: 0.13 µM

Problem: Okay, and C[C@@H]1NC(=O)N[C@@H]1CCCCCC(=O)NCCOCCOCCOCCn1cc(CCCOC(=O)NC(Cc2ccccc2)P(=O)(Oc2ccccc2)Oc2ccccc2)nn1 (stereo partly shown) ?
Solution: 3.23 µM

Problem: Okay, and C#CCCCOC(=O)NC(c1ccc(N)cc1)P(=O)(Oc1ccccc1)Oc1ccccc1 (stereo not shown) [19b] ?
Solution: > 10 µM

Problem: Okay, and C#CCCCOC(=O)NC(Cc1ccc(N)cc1)P(=O)(Oc1ccccc1)Oc1ccccc1 (stereo not shown) [16b] ?
Solution: 3.74 µM

Problem: Okay, and C#CCCCOC(=O)NC(C1CCNCC1)P(=O)(Oc1ccccc1)Oc1ccccc1 (stereo not shown) [23b] ?
Solution: > 10 µM

Further cases:
Problem: # get_value(readout= IC50, system= Cathepsin G (cathepsin G human neutrophil) (Homo sapiens)) for C#CCCCOC(=O)NC(CCCCN)P(=O)(Oc1ccc(NC(=O)OC)cc1)Oc1ccc(NC(=O)OC)cc1 (stereo not shown) [30b]
Solution: 0.56 µM

Problem: Okay, and C#CCCCOC(=O)NC(Cc1ccc(NC(=N)N)cc1)P(=O)(Oc1ccc(Cl)cc1)Oc1ccc(Cl)cc1 (stereo not shown) [36b] ?
Solution: 0.34 µM

Problem: Okay, and C#CCCCOC(=O)NC(CCCNC(=N)N)P(=O)(Oc1ccc(Cl)cc1)Oc1ccc(Cl)cc1 (stereo not shown) [33b] ?
Solution: 2.76 µM

Problem: Okay, and C#CCCCOC(=O)NC(CCCCN)P(=O)(Oc1ccccc1)Oc1ccccc1.O=C(O)C(F)(F)F (stereo not shown) [29b] ?
Solution: > 10 µM

Problem: Okay, and C#CCCCOC(=O)NC(Cc1ccccc1)P(=O)(Oc1ccccc1)Oc1ccccc1 (stereo not shown) ?
Solution: > 10 µM

----------
assayed.system: Thrombin (Homo sapiens)
Construct: purchased R&D
assay.method.text: Kinetic progress curves (kapp, K1, KI*, mechanism)
Format: biochemical
settings: apparent second-order rate constant from progress curves; mean ± SD
assay.endpoint: Thrombin kapp (M⁻¹ s⁻¹)
Report only the number, with the unit M⁻¹ s⁻¹ understood.

Problem: Request the reported Thrombin kapp associated with C#CCCCOC(=O)NC(Cc1ccc(NC(=N)N)cc1)P(=O)(Oc1ccccc1)Oc1ccccc1 (stereo not shown) [34b]
Solution: 17

Problem: Okay, and C#CCCCOC(=O)NC(CCCNC(=N)N)P(=O)(Oc1ccccc1)Oc1ccccc1 (stereo not shown) [32b] ?
Solution: 64

Further cases:
Problem: Request the reported Thrombin kapp associated with C[C@@H]1NC(=O)N[C@@H]1CCCCCC(=O)NCCOCCOCCOCCn1cc(CCCOC(=O)NC(Cc2ccc(NC(=N)N)cc2)P(=O)(Oc2ccccc2)Oc2ccccc2)nn1 (stereo partly shown) [50b]
Solution: 47

----------
assayed.system: β-tryptase (Homo sapiens, UniProt P20231)
Sequence (P20231 31-275): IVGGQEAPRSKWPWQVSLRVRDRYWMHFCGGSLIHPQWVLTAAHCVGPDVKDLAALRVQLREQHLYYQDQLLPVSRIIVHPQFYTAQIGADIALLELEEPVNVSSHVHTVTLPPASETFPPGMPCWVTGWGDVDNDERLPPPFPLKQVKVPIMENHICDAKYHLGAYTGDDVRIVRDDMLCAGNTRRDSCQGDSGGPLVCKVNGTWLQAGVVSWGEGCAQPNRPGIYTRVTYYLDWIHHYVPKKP
assay.method.text: Labeling and detection of recombinant proteases (SDS-PAGE blot, NeutrAvidin-HRP)
Type: binding
settings: 1 µM ABP, 100 ng protease, 30 min 37°C, denaturing SDS-PAGE blot
Method: Recombinant proteases (100 ng) were labeled with 1 µM ABP in reaction buffer in a final volume of 40 µL for 30 min at 37°C. After the addition of 4X Laemmli buffer (Bio-Rad, GmbH) supplemented with Bond-Breaker Tris (2-CarboxyEthyl)Phosphine (TCEP) Solution (Thermo Scientific, United States), the samples were heated at 95°C for 5 min and loaded into 4%–20% Mini-Protean TGX precast gels (Bio-Rad, GmbH). […] The molecular weight of each band was determined with the Image Lab Software v5 (Bio-Rad). […]
assay.endpoint: labeling of recombinant β-tryptase

Problem: Request the reported labeling of recombinant β-tryptase associated with CC(=O)Nc1ccc(OP(=O)(Oc2ccc(NC(C)=O)cc2)C(Cc2ccc(NC(=N)N)cc2)NC(=O)OCCCc2cn(CCOCCOCCOCCNC(=O)CCCCC[C@H]3NC(=O)N[C@H]3C)nn2)cc1 (some centres unmarked) [52b]
Solution: can label

Problem: Okay, and C[C@@H]1NC(=O)N[C@@H]1CCCCCC(=O)NCCOCCOCCOCCn1cc(CCCOC(=O)NC(Cc2ccc(NC(=N)N)cc2)P(=O)(Oc2ccccc2)Oc2ccccc2)nn1 (some centres unmarked) [50b] ?
Solution: can label

Problem: Okay, and C[C@@H]1NC(=O)N[C@@H]1CCCCCC(=O)NCCOCCOCCOCCn1cc(CCCOC(=O)NC(CCCNC(=N)N)P(=O)(Oc2ccccc2)Oc2ccccc2)nn1 (some centres unmarked) [45b] ?
Solution: not good ABP candidates

Problem: Okay, and C[C@@H]1NC(=O)N[C@@H]1CCCCCC(=O)NCCOCCOCCOCCn1cc(CCCOC(=O)NC(CCCNC(=N)N)P(=O)(Oc2ccc(Cl)cc2)Oc2ccc(Cl)cc2)nn1 (some centres unmarked) [46b] ?
Solution: not good ABP candidates
